Test: self-splicing fitness, log relative to wild type (ln ratio); higher = more splicing; Tetrahymena group I intron in knt gene, E. coli kanamycin selection, DiMSum; sequences stand for … in CUCUCU…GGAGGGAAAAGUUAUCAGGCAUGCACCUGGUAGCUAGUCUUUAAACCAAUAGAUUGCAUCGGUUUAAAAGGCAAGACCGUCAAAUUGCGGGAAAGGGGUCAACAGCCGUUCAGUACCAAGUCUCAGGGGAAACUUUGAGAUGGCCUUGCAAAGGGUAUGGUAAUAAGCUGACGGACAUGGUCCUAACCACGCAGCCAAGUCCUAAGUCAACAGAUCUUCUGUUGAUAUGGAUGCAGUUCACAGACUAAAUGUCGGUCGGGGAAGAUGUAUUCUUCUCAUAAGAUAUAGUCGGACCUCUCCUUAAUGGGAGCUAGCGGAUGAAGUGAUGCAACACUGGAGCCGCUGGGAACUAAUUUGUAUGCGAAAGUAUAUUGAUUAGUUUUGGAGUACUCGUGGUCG;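 also: selection with 25 µg/mL kanamycin versus none on LB agar overnight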
Conditions: 30 °C
Short version: self-splicing fitness (ln) at least -2 is rule met, less is rule not met.

Please indicate if the recorded self-splicing fitness (ln) for UUCUAGCAAUAUUACGUUAU meets or exceeds -2.
rule met

Here is the next sequence: AGGUAGCAAUAUUACGGGUC
rule not met

Note, next up: GACGAGCAAUAUUACGAGGA
rule not met

Now try ACUUAGCAAUAUUACGAGGG .
rule not met

Now this one: GUCCAGCAAUAUUACGACCG
rule not met

What about UGGAAGCAAUAUUACGCUAU ?
rule not met

Do the same for UCUCAGCAAUAUUACGUACG please
rule not met

Okay, and CGAAAGCAAUAUUACGUACC ?
rule met

What do you have for AUAAAGCAAUAUUACGUAUU ?
rule not met

Likewise for UGAAAGCAAUAUUACGCAAG ?
rule not met

And then CCUCAGCAAUAUUACGUCGA , what is it?
rule not met

And for CAGGAGCAAUAUUACGAACG ?
rule met

Can you check CUAAAGCAAUAUUACGCUUA next?
rule not met

Moving on to GAACAGCAAUAUUACGCGGG
rule met

Next up: CCUGAGCAAUAUUACGGAGA
rule not met

Lookup AAAAAGCAAUAUUACGAGGU
rule not met

* * *

Experiment: self-splicing fitness, log relative to wild type (ln ratio); higher = more splicing; Tetrahymena group I intron in knt gene, E. coli kanamycin selection, DiMSum; sequences stand for … in CUCUCU…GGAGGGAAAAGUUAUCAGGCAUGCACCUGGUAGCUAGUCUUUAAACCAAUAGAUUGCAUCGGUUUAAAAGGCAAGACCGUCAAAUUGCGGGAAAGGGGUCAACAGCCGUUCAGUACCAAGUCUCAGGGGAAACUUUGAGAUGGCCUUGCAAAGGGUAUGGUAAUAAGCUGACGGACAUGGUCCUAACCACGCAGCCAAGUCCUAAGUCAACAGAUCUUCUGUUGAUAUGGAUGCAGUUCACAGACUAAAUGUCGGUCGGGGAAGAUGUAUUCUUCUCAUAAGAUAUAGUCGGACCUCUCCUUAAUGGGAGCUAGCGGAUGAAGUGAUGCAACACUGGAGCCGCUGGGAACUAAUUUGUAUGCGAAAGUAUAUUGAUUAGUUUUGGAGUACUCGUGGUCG
Details: 37 °C
Assign Y to entries whose self-splicing fitness (ln) meets or exceeds -1; assign N to the rest.

Check if self-splicing fitness (ln) >= -1 (inclusive). Item: AGAGAGCAAUAUUACGGAUA
N

Try the sequence UAGCAGCAAUAUUACGGGUG
Y

// repeat for GAAAAGCAAUAUUACGCUUA and report
N

Could you do the same for AAAGAGCAAUAUUACGCGGG , please?
N

GUAUAGCAAUAUUACGAGGA , same question.
N

Next sequence: ACAAAGCAAUAUUACGAUCC
Y

# iterate: UCGAAGCAAUAUUACGGGAG
N

Another sequence to check: UGUAAGCAAUAUUACGAAGC
N

# iterate: CGCCAGCAAUAUUACGGCUU
Y

Next: GAGCAGCAAUAUUACGUGGA
N

What do we get for UGGCAGCAAUAUUACGAAAG ?
N

Can you check UAUCAGCAAUAUUACGAACC next?
Y

Please give the result for CUAAAGCAAUAUUACGAUCA too.
Y

Then this sequence: GGAUAGCAAUAUUACGUCCA
Y

Another sequence to check: CAGCAGCAAUAUUACGAUGU
N

Also AAGUAGCAAUAUUACGCAGA , if possible.
N

Request: CCUCAGCAAUAUUACGGACC
N

Now the same for GCACAGCAAUAUUACGCAGU
N

Repeat with AUUCAGCAAUAUUACGUUUC
N

Also, CCGUAGCAAUAUUACGACAU please.
N

Record: CUGAAGCAAUAUUACGAGAU
N

Record: UAGAAGCAAUAUUACGGACU
Y

Same for AUUCAGCAAUAUUACGUCUC
Y

Same lookup for CUGCAGCAAUAUUACGUUGC , please.
N

Follow-up item: CAUGAGCAAUAUUACGUAAC
N

Field entry: ACUAAGCAAUAUUACGGUAG
N

Thanks! And GUGUAGCAAUAUUACGUACU ?
N

Now consider AAGGAGCAAUAUUACGAUAG .
N

Param item: GUGAAGCAAUAUUACGUUAG
Y

And for UGAAAGCAAUAUUACGCUAG ?
Y

Also need AAAUAGCAAUAUUACGCACG , thanks.
Y

And AAUCAGCAAUAUUACGCAAG ?
Y

Continue with UGUUAGCAAUAUUACGCUUG
Y

Now consider GUGCAGCAAUAUUACGGCCC .
Y

What would you report for UAGCAGCAAUAUUACGCCGU ?
N

Next entry: GAUGAGCAAUAUUACGUAUA
N

Next entry: CCUUAGCAAUAUUACGCCAG
N

Next: AUGGAGCAAUAUUACGAGGC
N

GAGGAGCAAUAUUACGUCGU ?
N

And for GGUCAGCAAUAUUACGAAAU ?
Y

Now try GCUGAGCAAUAUUACGAGUC .
N

Also check UGGAAGCAAUAUUACGGAUC
N

Now consider AGCGAGCAAUAUUACGGGCA and answer again.
Y

Another sequence to check: CUCCAGCAAUAUUACGUCCG
N

Let us now turn to CUAGAGCAAUAUUACGGAUA
N

Please give the result for AAAAAGCAAUAUUACGGUCU too.
Y

Request: CAUUAGCAAUAUUACGAAAG
Y

What do you get for GUCAAGCAAUAUUACGCGCU ?
Y

Again, but for UGUGAGCAAUAUUACGACAU
N

// repeat for AGCAAGCAAUAUUACGCUAC and report
N

Would you mind doing GACCAGCAAUAUUACGAGAG as well?
N

Continue with CGUAAGCAAUAUUACGGCGA
N

Can you check GCUAAGCAAUAUUACGAAAU next?
Y

Consider next the sequence CAUAAGCAAUAUUACGGCUU in the same way.
N

Same question for UAGCAGCAAUAUUACGGAUC please.
N

// same read-out, input: CGAAAGCAAUAUUACGGGUA
N

Now the same for CGUAAGCAAUAUUACGAUAA
N

# repeat for GUCCAGCAAUAUUACGGGUC
N

Moving on to GGAUAGCAAUAUUACGAAUA
Y

CAUGAGCAAUAUUACGGCAA ?
N

What about UAAUAGCAAUAUUACGACAU ?
N

Also, AAUCAGCAAUAUUACGACUA please.
Y

Same thing, different sequence: CCAGAGCAAUAUUACGUACA
N

Thanks! And UACAAGCAAUAUUACGGUGC ?
N

Can you check GGUGAGCAAUAUUACGACUG next?
Y

* * *

Give self-splicing fitness (ln) for every item shown.
Assay: self-splicing fitness, log relative to wild type (ln ratio); higher = more splicing; Tetrahymena group I intron in knt gene, E. coli kanamycin selection, DiMSum; sequences stand for … in CUCUCU…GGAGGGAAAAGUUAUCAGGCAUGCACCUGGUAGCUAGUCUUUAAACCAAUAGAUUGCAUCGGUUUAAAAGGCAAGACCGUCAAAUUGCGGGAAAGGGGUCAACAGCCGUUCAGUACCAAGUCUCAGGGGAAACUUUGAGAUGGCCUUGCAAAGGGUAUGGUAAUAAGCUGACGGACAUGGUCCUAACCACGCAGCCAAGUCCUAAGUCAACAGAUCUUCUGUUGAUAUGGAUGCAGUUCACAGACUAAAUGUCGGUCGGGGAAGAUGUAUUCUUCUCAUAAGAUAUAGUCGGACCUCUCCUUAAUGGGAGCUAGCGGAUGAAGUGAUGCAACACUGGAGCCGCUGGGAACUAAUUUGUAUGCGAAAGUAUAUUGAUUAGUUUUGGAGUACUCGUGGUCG
Settings: 37 °C
Reply with just the number.

For the sequence shown here, ACUUAGCAAUAUUACGCCCU , give the reported self-splicing fitness (ln).
0.0637

What do we get for CUCAAGCAAUAUUACGGUCA ?
-2.35

Now consider CUCGAGCAAUAUUACGAGCC and answer again.
-1.68

Continue with AAAUAGCAAUAUUACGGUGA
-0.521

And the next one, AGGGAGCAAUAUUACGGGUA ?
-2.64

Another sequence: CGGUAGCAAUAUUACGAGGG
-2.96

Then this sequence: AACGAGCAAUAUUACGAAUG
-3.18

Thanks! And CAUUAGCAAUAUUACGGCUA ?
-1.47

These measurements were taken from the supplement of paper PMC7877785.
